# Test system: NCI-H460 lung
# assay-procedure: NCI tumour cell line growth inhibition, 48 h
assay-readout: TGI

The cases that follow already have their TGI on record.
| compound | TGI |
| --- | --- |
| O=C1CNC(=O)c2[nH]cnc2N1 | > 100 µM |
| NC(N)=NC(N)=NCCCc1ccco1 | > 500 µM |
| COc1ccc2c(c1)NC1(O)c3ccccc3C(=O)C21O (centres undefined) | > 100 µM |
| CC(C(=O)c1ccccc1)C1(O)C(=O)Nc2ccc(Cl)cc21 (centres undefined) | > 100 µM |

--- query ---
Query: Item: O=c1oc2cc(OC/C(=N/O)c3ccc(F)cc3)ccc2c2ccccc12 Test system: NCI-H460 lung Read-out: TGI Value: ?
Response: 35.2 µM
